# SYSTEM NAME: UniProt P15823
# Sequence (P15823 whole entry): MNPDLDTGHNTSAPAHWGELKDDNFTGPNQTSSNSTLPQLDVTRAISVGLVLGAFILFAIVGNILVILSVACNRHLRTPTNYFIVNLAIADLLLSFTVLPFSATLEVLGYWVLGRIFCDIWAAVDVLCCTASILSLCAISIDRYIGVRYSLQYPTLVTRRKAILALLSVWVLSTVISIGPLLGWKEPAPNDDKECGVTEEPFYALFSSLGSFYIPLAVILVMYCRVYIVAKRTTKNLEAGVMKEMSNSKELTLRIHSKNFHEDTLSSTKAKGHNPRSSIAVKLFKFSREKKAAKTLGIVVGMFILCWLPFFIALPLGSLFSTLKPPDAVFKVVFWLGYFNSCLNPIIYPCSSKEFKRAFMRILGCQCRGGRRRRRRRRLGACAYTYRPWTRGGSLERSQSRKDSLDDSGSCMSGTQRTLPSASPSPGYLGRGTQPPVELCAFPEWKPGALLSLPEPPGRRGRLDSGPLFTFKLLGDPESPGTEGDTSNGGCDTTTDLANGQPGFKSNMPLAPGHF
VALUE TYPE: pKi
One number for each entry, as −log10 of the molar value.

Incoming: Annotate the compound `O=C1COc2cc(CN3CCN(c4ccc(Cl)cc4)CC3)ccc2N1` with its measured pKi.
Outgoing: 6.10

----------
# SYSTEM NAME: D(2) dopamine receptor (Homo sapiens)
# Sequence (P14416 whole entry): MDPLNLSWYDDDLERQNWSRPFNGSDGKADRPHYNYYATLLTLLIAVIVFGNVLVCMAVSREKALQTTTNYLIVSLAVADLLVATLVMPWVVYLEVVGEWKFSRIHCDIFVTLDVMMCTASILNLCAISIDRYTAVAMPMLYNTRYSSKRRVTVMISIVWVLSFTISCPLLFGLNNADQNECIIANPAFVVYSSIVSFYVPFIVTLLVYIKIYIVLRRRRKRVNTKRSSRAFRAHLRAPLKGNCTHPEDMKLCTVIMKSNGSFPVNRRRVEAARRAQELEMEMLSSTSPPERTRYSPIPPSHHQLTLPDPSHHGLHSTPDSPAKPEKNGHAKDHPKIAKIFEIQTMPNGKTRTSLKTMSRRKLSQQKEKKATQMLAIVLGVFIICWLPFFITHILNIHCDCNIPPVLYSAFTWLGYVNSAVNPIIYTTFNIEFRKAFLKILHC
# ASSAY TEXT: Binding affinity at Dopamine receptor D2 in CHO cells by radioligand displacement.
VALUE TYPE: Ki (nM)
One number for each entry, in nM.

Incoming: Specify measured Ki for `O=C1COc2cc(CN3CCN(c4ccc(Cl)cc4)CC3)ccc2N1` .
Outgoing: 413

----------
# SYSTEM NAME: 5-hydroxytryptamine receptor 1A (Homo sapiens, UniProt P08908)
# Sequence (P08908 whole entry): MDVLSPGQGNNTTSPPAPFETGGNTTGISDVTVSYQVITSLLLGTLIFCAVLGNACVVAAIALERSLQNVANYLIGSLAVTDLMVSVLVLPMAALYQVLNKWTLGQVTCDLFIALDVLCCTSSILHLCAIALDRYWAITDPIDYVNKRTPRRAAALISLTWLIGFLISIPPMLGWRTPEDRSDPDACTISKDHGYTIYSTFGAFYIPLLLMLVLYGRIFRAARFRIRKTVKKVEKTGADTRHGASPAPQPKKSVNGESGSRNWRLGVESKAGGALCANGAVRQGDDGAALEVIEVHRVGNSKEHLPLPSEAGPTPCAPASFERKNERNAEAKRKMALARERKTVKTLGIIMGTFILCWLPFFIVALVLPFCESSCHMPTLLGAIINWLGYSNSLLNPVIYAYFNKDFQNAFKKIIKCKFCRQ
# ASSAY TEXT: Inhibition of [3H]- […] binding against human recombinant 5-hydroxytryptamine 1A receptor
VALUE TYPE: Ki (nM)
Give bare numbers, in nM.

Incoming: Report measured Ki; entry is `O=C1COc2cc(CN3CCN(c4ccc(Cl)cc4)CC3)ccc2N1`
Outgoing: 792
